Molecular target: Delta-type opioid receptor (Rattus norvegicus, UniProt P33533)
Sequence (P33533 whole entry): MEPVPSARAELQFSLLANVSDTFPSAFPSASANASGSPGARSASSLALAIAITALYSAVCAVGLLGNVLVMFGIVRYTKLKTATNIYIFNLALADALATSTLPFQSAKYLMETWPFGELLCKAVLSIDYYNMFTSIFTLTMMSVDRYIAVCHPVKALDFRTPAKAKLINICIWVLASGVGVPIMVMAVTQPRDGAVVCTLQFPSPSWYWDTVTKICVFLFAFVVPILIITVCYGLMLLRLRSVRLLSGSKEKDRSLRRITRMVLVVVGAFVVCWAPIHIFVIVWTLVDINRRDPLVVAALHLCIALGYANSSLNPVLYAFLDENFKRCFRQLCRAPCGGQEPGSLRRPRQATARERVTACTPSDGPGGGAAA
Test: Displacement of [3H]Ile5,6-deltorphin-2 from DOR in Wistar rat brain membranes after 60 mins by liquid scintillation analysis
Assay type: cell membranes
Consider the following compounds and their measured Ki readings.

molecule smiles	Ki
COc1ccc2c3c1O[C@H]1/C(=N\OCC(=O)NCCNC(=O)CCCCCn4cc(C(=O)c5cccc6ccccc56)c5ccccc54)CC[C@@]4(O)[C@@H](C2)N(C)CC[C@]314	623 nM
C[C@@H](NC(=O)[C@@H](N)Cc1ccc(O)cc1)C(=O)NCC(=O)N[C@@H](Cc1ccccc1)C(=O)NCC(=O)NCCCCCn1cc(C(=O)c2cccc3ccccc23)c2ccccc21	134 nM
COc1ccc2c3c1O[C@H]1/C(=N\OCC(=O)NCCCCCCNC(=O)CCCCCn4cc(C(=O)c5cccc6ccccc56)c5ccccc54)CC[C@@]4(O)[C@@H](C2)N(C)CC[C@]314	263 nM
CCCCCn1cc(C(=O)c2cccc3ccccc23)c2ccccc21	> 10000 nM
C[C@@H](NC(=O)[C@@H](N)Cc1ccc(O)cc1)C(=O)NCC(=O)N[C@@H](Cc1ccccc1)C(=O)NCCCCCn1cc(C(=O)c2cccc3ccccc23)c2ccccc21	214 nM
C[C@@H](NC(=O)[C@@H](N)Cc1ccc(O)cc1)C(=O)NCC(=O)N[C@@H](Cc1ccccc1)C(=O)NCCCC(=O)NCCCCCn1cc(C(=O)c2cccc3ccccc23)c2ccccc21	92 nM
COc1ccc2c3c1O[C@H]1/C(=N\OCC(=O)NCCN)CC[C@@]4(O)[C@@H](C2)N(C)CC[C@]314	533 nM
COc1ccc2c3c1O[C@H]1/C(=N\OCC(=O)NCCCOCCOCCOCCCN)CC[C@@]4(O)[C@@H](C2)N(C)CC[C@]314	757 nM
COc1ccc2c3c1O[C@H]1/C(=N\OCC(=O)O)CC[C@@]4(O)[C@@H](C2)N(C)CC[C@]314	110 nM
COc1ccc2c3c1O[C@H]1/C(=N\OCC(=O)NCCCCCCN)CC[C@@]4(O)[C@@H](C2)N(C)CC[C@]314	659 nM
C[C@@H](NC(=O)[C@@H](N)Cc1ccc(O)cc1)C(=O)NCC(=O)N[C@@H](Cc1ccccc1)C(=O)NCCC(=O)NCCCCCn1cc(C(=O)c2cccc3ccccc23)c2ccccc21	190 nM
COc1ccc2c3c1O[C@H]1/C(=N\OCC(=O)NCCCOCCOCCOCCCNC(=O)CCCCCn4cc(C(=O)c5cccc6ccccc56)c5ccccc54)CC[C@@]4(O)[C@@H](C2)N(C)CC[C@]314	386 nM
